Ref: PubChem BioAssay (NCI)

Test system: M19-MEL melanoma
Assay: NCI tumour cell line growth inhibition, 48 h
Reported values of TGI for individual entries

{"columns": ["Compound", "TGI"],
 "data": [
  ["Cc1[nH]c(=O)[nH]c(=O)c1/C=C/C(=O)NC(CO)CS(=O)Cc1ccccc1 (stereo not given)", "> 300 µM"],
  ["COc1ccc(Cc2c(=O)[nH]nc3ccccc23)cc1", "> 100 µM"],
  ["O=C(O)COc1ccc(C(=O)/C(SS/C(C(=O)c2ccc(OCC(=O)O)c(Cl)c2Cl)=C2\\C=C(c3ccc(Cl)cc3)SS2)=C2/C=C(c3ccc(Cl)cc3)SS2)c(Cl)c1Cl", "20.6 µM"],
  ["O=C(O)C(C(=O)O)P(=S)(S)c1ccccc1 (stereo not given)", "> 100 µM"]
]}

Now for another entry.
Request: Dear colleague, I am looking for the recorded TGI of the following compound: N#CC1=C(c2ccccc2)C(=C2Nc3ccccc3N2)C2S/C(=C\c3ccccc3)C(=O)N2C1=N (stereo not given)
Result: 7.97 µM
